system: Balb/c mice; assay: Polypeptide chip-based vaccine immunogenicity scoring system; format: in vivo; conditions: adjuvant Imjet Alumn; 7 peptides co-immunized in mice
As shown below, each of these sequences has a reported 1) 95 percentile grouping number A1 value.
Simply state the number, no unit and no words.

- Record Sequence: "SVYAWNRKR (SARS-CoV-2) [SEQ ID NO:3]"
  Data Value: 0.09
- Record Sequence: "SNLKPFER (SARS-CoV-2) [SEQ ID NO:36]"
  Data Value: 0.065
- Record Sequence: "YGANKDGI (SARS-CoV-2) [SEQ ID NO:21]"
  Data Value: 0.025
- Record Sequence: "VYDPLQPEL (SARS-CoV-2) [SEQ ID NO:34]"
  Data Value: 0.11
- Record Sequence: "LQDLKWARFPKS [SEQ ID NO:29]"
  Data Value: 0.08
- Record Sequence: "KLDDKDPNFK (SARS-CoV-2) [SEQ ID NO:20]"
  Data Value: 0

Next sequence, please.
## Input Dear colleague, I am looking for the recorded 1) 95 percentile grouping number A1 of the following sequence: MEVTPSGTWLTY (SARS-CoV-2) [SEQ ID NO:22]
## Output 0.145

---

Measured 2) Mouse performance B2, listed per entry for reference.
tested on: Balb/c mice; assay: Polypeptide chip-based vaccine immunogenicity scoring system; type: in vivo; details: adjuvant Adju-Phos; 7 peptides co-immunized in mice

Reference set (2 entries):
- Record Sequence: "VYDPLQPEL (SARS-CoV-2) [SEQ ID NO:34]"
  2) Mouse performance B2: 4
- Record Sequence: "SNLKPFER (SARS-CoV-2) [SEQ ID NO:36]"
  2) Mouse performance B2: 2

Here's the next entry for you.
## Input What value of 2) Mouse performance B2 has been recorded for this entry: YGANKDGI (SARS-CoV-2) [SEQ ID NO:21]
## Output 4

---

test system: Balb/c mice; assay: Polypeptide chip-based vaccine immunogenicity scoring system; format: in vivo; conditions: Embodiment III; polypeptide-KLH; value of the whole mix
Value Type: C: Timing-sequence response and specificity score
// response body must contain only the number

Consider the worked cases shown below.
- Record Sequence: "NVAKSEFDRDAA [SEQ ID NO:26]"
  Data Value: 0.5
- Record Sequence: "MEVTPSGTWLTY (SARS-CoV-2) [SEQ ID NO:22]"
  Data Value: 0.5
- Record Sequence: "PLQPELDSFKEE [SEQ ID NO:37]"
  Data Value: 0.5
- Record Sequence: "NSVAYSNNS (SARS-CoV-2) [SEQ ID NO:9]"
  Data Value: 0.5
- Record Sequence: "LQDLKWARFPKS [SEQ ID NO:29]"
  Data Value: 0.5
- Record Sequence: "GVYYPDKVFR (SARS-CoV-2) [SEQ ID NO:7]"
  Data Value: 0.5

## Input # lookup: C: Timing-sequence response and specificity score of KRISNCVADY [SEQ ID NO:8]
## Output 0.5

## Input Requested field: C: Timing-sequence response and specificity score. Item: ALDPLSETKCT (SARS-CoV-2) [SEQ ID NO:4]
## Output 1

## Input What value of C: Timing-sequence response and specificity score has been reported for the following sequence? VYDPLQPEL (SARS-CoV-2) [SEQ ID NO:34]
## Output 1

## Input C: Timing-sequence response and specificity score for RGGSYTNDKAC (SARS-CoV-2) [SEQ ID NO:2] ?
## Output 1
